measuredOn: T1, native human ESRRG protein (Estrogen-receptor related receptor gamma) (human, UniProt P62508 229-458, limits assumed)
T1 construct: the screened protein is called 'native human ESRRG protein'; also called ESSRG; ERRγ
T1 sequence (looked up): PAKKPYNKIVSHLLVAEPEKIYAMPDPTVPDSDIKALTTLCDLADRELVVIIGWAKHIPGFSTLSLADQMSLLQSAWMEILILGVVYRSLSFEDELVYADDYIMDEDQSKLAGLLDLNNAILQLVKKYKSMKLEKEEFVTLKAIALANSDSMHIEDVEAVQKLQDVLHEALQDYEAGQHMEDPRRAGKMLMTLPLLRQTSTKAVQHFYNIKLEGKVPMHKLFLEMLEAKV
protocolText: peptide microarray, Iteration 2; bound ESRRG detected with fluorescent anti-ESRRG mAb
Where no end group is shown, it is not given here.
Quick reference: log2 (Sample B/Sample A) of the listed items.
Output spec: single numeric token, no unit.

Solved entries (count: 5):
[
  {
    "binder": "Ac-YFLLQQGP",
    "log2 (Sample B/Sample A)": 1.97
  },
  {
    "binder": "Ac-WGKLKQGE",
    "log2 (Sample B/Sample A)": 2.56
  },
  {
    "binder": "Ac-HNNYLLNN",
    "log2 (Sample B/Sample A)": 2.34
  },
  {
    "binder": "Ac-FWNMYLNP",
    "log2 (Sample B/Sample A)": 2.29
  },
  {
    "binder": "Ac-HRSYPRRG",
    "log2 (Sample B/Sample A)": 4.56
  }
]

IN: Quick one: log2 (Sample B/Sample A) of Ac-WNSYPRND ?
OUT: 2.91

IN: Quick one: log2 (Sample B/Sample A) of Ac-RRSYPRGR ?
OUT: 1.9

IN: Quick one: log2 (Sample B/Sample A) of Ac-ALNFSLNW ?
OUT: 2.12

IN: Quick one: log2 (Sample B/Sample A) of Ac-HNSYPRNE ?
OUT: 2.48
